src = patent US8669271B2

- TESTED_TARGET: human GPR119 (Homo sapiens, UniProt Q8TDV5)
- Construct: expression vector for human GPR119 cDNA (Acc. No. NP_848566)
- Sequence (Q8TDV5 1-335): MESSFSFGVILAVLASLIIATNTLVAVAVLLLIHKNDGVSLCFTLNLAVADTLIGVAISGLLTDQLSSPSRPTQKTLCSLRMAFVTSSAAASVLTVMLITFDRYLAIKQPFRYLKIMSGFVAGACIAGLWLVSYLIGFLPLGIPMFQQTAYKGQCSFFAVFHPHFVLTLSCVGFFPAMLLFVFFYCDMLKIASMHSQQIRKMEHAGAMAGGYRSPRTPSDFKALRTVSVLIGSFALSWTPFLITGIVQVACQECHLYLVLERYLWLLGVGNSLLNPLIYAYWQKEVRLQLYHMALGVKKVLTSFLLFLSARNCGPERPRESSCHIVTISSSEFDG
- PROTOCOL_DESCRIPTION: AlphaScreen cAMP assay in Min-6/hGPR119 cells (activation of GPR119, intracellular cAMP)
- CONDITIONS_USED: MIN6 cells stably transfected with human GPR119; cAMP by AlphaScreen after 45 minutes incubation at room temperature
pEC50: −log10 of the molar value.
MEASURED_PROPERTY: pEC50

Some solved cases for reference:
> print(dat)
                                   molecule                             tested.target  measured.property  assay.result
1  CC(C)(C)OC(=O)N1CCC(C2(C)Cc3cc(-c4ccc(S(C)(=O)=O)cc4)ncc3O2)CC1 (stereo not shown)  human GPR119 (Homo sapiens, UniProt Q8TDV5)              pEC50          7.85
2  CC(C)OC(=O)N1CCC(C2Cc3cc(-c4ccc(C(=O)NCCC(C)(C)O)cc4)ccc3O2)CC1 (stereo not shown)  human GPR119 (Homo sapiens, UniProt Q8TDV5)              pEC50          6.95
3  CC(C)OC(=O)N1CCC(C2Cc3cc(-c4ccc(C(=O)NCC(C)(C)CO)cc4)ccc3O2)CC1 (stereo not shown)  human GPR119 (Homo sapiens, UniProt Q8TDV5)              pEC50          7.33

P. CC(C)(C)OC(=O)N1CCC(C2Cc3cc(-c4ccc(CS(C)(=O)=O)cc4F)ncc3O2)CC1 (single isomer, unassigned) [Example 76]
Q. CC(C)(C)OC(=O)N1CCC(C2Cc3cc(-c4ccnc(C#N)c4)ncc3O2)CC1 (stereo not shown)
Enquiry: Pick one: P or Q . Which has the bigger pEC50 number? Write the label of whichever entry you select.
Return: Q

I. CC1(OC(=O)N2CCC(C3Cc4cc(-c5ccc(S(C)(=O)=O)cc5)ncc4O3)CC2)CC1 (stereo not shown)
II. Cc1cc(S(C)(=O)=O)ncc1-c1ccc2c(c1)CC(C1CCN(C(=O)OC(C)C)CC1)O2 (stereo not shown)
Enquiry: Rank I against II by their pEC50 values and give the higher one. Choose, then provide that item's label.
Return: I
